test: in vitro
assay_conditions: mouse, liver microsomes
Description: Metabolic stability in mouse liver microsomes assessed as parent compound remaining at 0.5 uM measured after 10 mins
I'd be grateful if you could share measured remaining at 10 min, 0.5 µM for these entries.
Answers are plain numbers, in %.

1. COc1ccc(C(=O)N[C@H](C)[C@H]2CC[C@@H](c3ccnc4ccc(F)cc43)CC2)cc1N1CCOCC1 ... 4
2. C[C@@H](NC(=O)c1ccc(Cl)cc1)[C@H]1CC[C@@H](c2ccnc3ccc(F)cc32)CC1 ... 21
3. C[C@@H](NCc1ccc(Cl)cc1)[C@H]1CC[C@@H](c2ccnc3ccc(F)cc32)CC1 ... 2
4. C[C@@H](C(=O)Nc1ccc(Cl)cc1)[C@H]1CC[C@@H](c2ccnc3ccc(F)cc32)CC1 ... 31
5. C[C@@H](NC(=O)Cc1ccc(Cl)cc1)[C@H]1CC[C@@H](c2ccnc3ccc(F)cc32)CC1 ... 2
6. C[C@@H](NC(=O)C1CCCCC1)[C@H]1CC[C@@H](c2ccnc3ccc(F)cc32)CC1 ... 5

Given C[C@@H](CNc1ccc(Cl)cc1)[C@H]1CC[C@@H](c2ccnc3ccc(F)cc32)CC1 , state its recorded remaining at 10 min, 0.5 µM.
80

###

test: AUC in rat at 6 mg/kg, po
Type: ADME, organism-based
Parameters: dose 6 mg/kg
assay_conditions: in vivo
parameter: AUC (µM·h)
Numbers only, in µM·h.

Given C[C@@H](NC(=O)c1ccc(Cl)cc1)[C@H]1CC[C@@H](c2ccnc3ccc(F)cc32)CC1 , state its recorded AUC.
28.2

###

test: in vitro
assay_conditions: human, liver microsomes
Description: Metabolic stability in human liver microsomes assessed as parent compound remaining at 0.5 uM measured after 10 mins
parameter: remaining at 10 min, 0.5 µM (%)
Answers are plain numbers, in %.

1) COc1ccc(C(=O)N[C@H](C)[C@H]2CC[C@@H](c3ccnc4ccc(F)cc43)CC2)cc1N1CCOCC1 ... 2
2) C[C@@H](NC(=O)c1ccccc1Cl)[C@H]1CC[C@@H](c2ccnc3ccc(F)cc32)CC1 ... 21
3) C[C@@H](NC(=O)c1ccc(Cl)cc1)[C@H]1CC[C@@H](c2ccnc3ccc(F)cc32)CC1 ... 54
4) C[C@@H](C(=O)Nc1ccc(Cl)cc1)[C@H]1CC[C@@H](c2ccnc3ccc(F)cc32)CC1 ... 84
5) C[C@@H](NC(=O)C12CCC(Cl)(CC1)CC2)[C@H]1CC[C@@H](c2ccnc3ccc(F)cc32)CC1 ... 9

Can you give me remaining at 10 min, 0.5 µM for all of these, one by one?
1. C[C@@H](c1nc2ccc(Cl)cc2[nH]1)[C@H]1CC[C@@H](c2ccnc3ccc(F)cc32)CC1
2. C[C@@H](NC(=O)Cc1ccc(Cl)cc1)[C@H]1CC[C@@H](c2ccnc3ccc(F)cc32)CC1

[48, 8]

Can you give me remaining at 10 min, 0.5 µM for all of these, one by one?
1. C[C@@H](NCc1ccc(Cl)cc1)[C@H]1CC[C@@H](c2ccnc3ccc(F)cc32)CC1
2. COc1ncc(NC(=O)[C@H](C)[C@H]2CC[C@@H](c3ccnc4ccc(F)cc43)CC2)cn1
3. C[C@H](NC(=O)[C@H](C)[C@H]1CC[C@@H](c2ccnc3ccc(F)cc32)CC1)c1ccc(Cl)cc1

[34, 73, 19]

###

target_under_test: Indoleamine 2,3-dioxygenase 1 (Homo sapiens, UniProt P14902)
Sequence (P14902 whole entry): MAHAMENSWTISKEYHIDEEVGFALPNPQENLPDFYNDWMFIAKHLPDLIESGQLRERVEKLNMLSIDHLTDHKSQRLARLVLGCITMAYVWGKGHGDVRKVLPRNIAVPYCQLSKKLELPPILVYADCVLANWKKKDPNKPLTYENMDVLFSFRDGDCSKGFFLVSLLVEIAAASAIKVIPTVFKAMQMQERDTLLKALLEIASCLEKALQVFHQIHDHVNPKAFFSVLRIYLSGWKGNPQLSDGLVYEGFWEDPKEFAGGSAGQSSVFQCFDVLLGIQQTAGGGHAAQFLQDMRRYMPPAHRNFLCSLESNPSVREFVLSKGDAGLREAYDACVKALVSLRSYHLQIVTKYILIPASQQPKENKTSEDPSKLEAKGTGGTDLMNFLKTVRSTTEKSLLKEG
test: Inhibition of IDO1 in IFNgamma/LPS-stimulated human whole blood preincubated for 4 hrs followed by IFNgamma/LPS stimulation and incubated for 18 hrs by Rapid-fire mass spectrometry analysis
Assay type: tissue-based
parameter: IC50 (nM)
One number for each entry, in nM.

1. COc1ncc(NC(=O)[C@H](C)[C@H]2CC[C@@H](c3ccnc4ccc(F)cc43)CC2)cn1 ... 80
2. C[C@@H](NC(=O)c1ccccc1Cl)[C@H]1CC[C@@H](c2ccnc3ccc(F)cc32)CC1 ... 135
3. C[C@@H](NC(=O)Nc1ccc(Cl)cc1)[C@H]1CC[C@@H](c2ccnc3ccc(F)cc32)CC1 ... 280
4. C[C@@H](NC(=O)c1cccc(Cl)c1)[C@H]1CC[C@@H](c2ccnc3ccc(F)cc32)CC1 ... 97
5. C[C@@H](NC(=O)C12CCC(Cl)(CC1)CC2)[C@H]1CC[C@@H](c2ccnc3ccc(F)cc32)CC1 ... 579
6. C[C@@H](C(=O)NC1CCCCC1)[C@H]1CC[C@@H](c2ccnc3ccc(F)cc32)CC1 ... 470

Moving on to another molecule below.
Write down the reported IC50 of C[C@@H](CNC(=O)c1ccc(Cl)cc1)[C@H]1CC[C@@H](c2ccnc3ccc(F)cc32)CC1 , test system: Indoleamine 2,3-dioxygenase 1 (Homo sapiens, UniProt P14902).
158

###

target_under_test: UDP-glucuronosyltransferases (UGTs) (Homo sapiens, UniProt O60656+O75310+O75795+P06133+P0DTE4+P0DTE5+P16662+P19224+P22309+P22310+P35503+P35504+P36537+P54855+Q6UWM9+Q9BY64+Q9HAW7+Q9HAW8+Q9HAW9)
test: Metabolic stability in human hepatocytes assessed as UGT-mediated compound glucuronidation by measuring half life
Type: ADME, cell-based, Hepatocyte
parameter: half-life (h)
Numbers only, in h.

Given C[C@@H](NC(=O)c1ccc(Cl)cc1)[C@H]1CC[C@@H](c2ccnc3ccc(F)cc32)CC1 , state its recorded half-life.
2

###

test: AUC (0 to 24 hrs) in nu/nu mouse xenografted with human SK-OV-3 cells measured in tumor at 3 mg/kg, po qd by uHPLC-MS/MS analysis
Assay type: ADME, organism-based
Parameters: time < 24 hr, route oral, dose 3 mg/kg
parameter: AUC at 24 h
I'd appreciate it if you wrote the number followed by its unit.

Given C[C@@H](NC(=O)c1ccc(Cl)cc1)[C@H]1CC[C@@H](c2ccnc3ccc(F)cc32)CC1 , state its recorded AUC at 24 h.
9.6 µM·h

###

test: Permeability across apical to basal side in human Caco-2 cells
Format: ADME, cell-based
assay_conditions: read-out: permeability
parameter: Papp A→B (×10⁻⁶ cm/s)
One number for each entry, in ×10⁻⁶ cm/s.

Given C[C@@H](NC(=O)c1ccc(Cl)cc1)[C@H]1CC[C@@H](c2ccnc3ccc(F)cc32)CC1 , state its recorded Papp A→B.
8.8

###

test: Metabolic stability in cynomolgus monkey hepatocytes assessed as UGT-mediated compound glucuronidation by measuring half life
Type: ADME, cell-based, Macaca fascicularis, Hepatocyte
parameter: half-life

Given C[C@@H](NC(=O)c1ccc(Cl)cc1)[C@H]1CC[C@@H](c2ccnc3ccc(F)cc32)CC1 , state its recorded half-life.
> 2 h

###

I'd be grateful if you could share measured IC50 for these entries.
target_under_test: Indoleamine 2,3-dioxygenase 1 (Homo sapiens, UniProt P14902)
test: Inhibition of IDO1 in IFNgamma-stimulated human HeLa cells preincubated for 2 hrs followed by IFNgamma stimulation and measured after 18 hrs by
Answers are plain numbers, in nM.

# example entries with known answers
1) C[C@@H](NCc1ccc(Cl)cc1)[C@H]1CC[C@@H](c2ccnc3ccc(F)cc32)CC1 ... 745
2) C[C@@H](C(=O)NC1CCCCC1)[C@H]1CC[C@@H](c2ccnc3ccc(F)cc32)CC1 ... 18
3) C[C@@H](NC(=O)c1ccccc1Cl)[C@H]1CC[C@@H](c2ccnc3ccc(F)cc32)CC1 ... 12

Can you give me IC50 for all of these, one by one?
1. C[C@@H](NC(=O)c1ccc(-c2ccccc2)cc1)[C@H]1CC[C@@H](c2ccnc3ccc(F)cc32)CC1
2. C[C@@H](NC(=O)c1ccc(Cl)cc1)[C@H]1CC[C@@H](c2ccnc3ccc(F)cc32)CC1

2
2

Can you give me IC50 for all of these, one by one?
1. C[C@@H](CNC(=O)c1ccc(Cl)cc1)[C@H]1CC[C@@H](c2ccnc3ccc(F)cc32)CC1
2. COc1ncc(NC(=O)[C@H](C)[C@H]2CC[C@@H](c3ccnc4ccc(F)cc43)CC2)cn1

1: 261; 2: 10

###

test: Metabolic stability in mouse hepatocytes assessed as UGT-mediated compound glucuronidation by measuring half life
Type: ADME, cell-based, Hepatocyte
parameter: half-life

Given C[C@@H](NC(=O)c1ccc(Cl)cc1)[C@H]1CC[C@@H](c2ccnc3ccc(F)cc32)CC1 , state its recorded half-life.
> 2 h

###

test: Metabolic stability in rat hepatocytes assessed as UGT-mediated compound glucuronidation by measuring half life
Assay type: ADME, cell-based, Hepatocyte
parameter: half-life (h)
One number for each entry, in h.

Given C[C@@H](NC(=O)c1ccc(Cl)cc1)[C@H]1CC[C@@H](c2ccnc3ccc(F)cc32)CC1 , state its recorded half-life.
1.55

###

test: in vitro
assay_conditions: mouse, liver microsomes
parameter: remaining at 10 min, 0.5 µM (%)
One number for each entry, in %.

# example entries with known answers
1. C[C@@H](NC(=O)C12CCC(Cl)(CC1)CC2)[C@H]1CC[C@@H](c2ccnc3ccc(F)cc32)CC1 ... 10
2. C[C@@H](NC(=O)c1ccc(-c2ccccc2)cc1)[C@H]1CC[C@@H](c2ccnc3ccc(F)cc32)CC1 ... 70
3. C[C@@H](NC(=O)Nc1ccc(Cl)cc1)[C@H]1CC[C@@H](c2ccnc3ccc(F)cc32)CC1 ... 14
4. C[C@@H](NC(=O)c1cccc(Cl)c1)[C@H]1CC[C@@H](c2ccnc3ccc(F)cc32)CC1 ... 9
5. C[C@@H](NC(=O)c1ccccc1Cl)[C@H]1CC[C@@H](c2ccnc3ccc(F)cc32)CC1 ... 7

Can you give me remaining at 10 min, 0.5 µM for all of these, one by one?
1. C[C@@H](CNC(=O)c1ccc(Cl)cc1)[C@H]1CC[C@@H](c2ccnc3ccc(F)cc32)CC1
2. COc1ncc(NC(=O)[C@H](C)[C@H]2CC[C@@H](c3ccnc4ccc(F)cc43)CC2)cn1
3. C[C@@H](c1nc2ccc(Cl)cc2[nH]1)[C@H]1CC[C@@H](c2ccnc3ccc(F)cc32)CC1
4. C[C@H](NC(=O)[C@H](C)[C@H]1CC[C@@H](c2ccnc3ccc(F)cc32)CC1)c1ccc(Cl)cc1

1. 32
2. 51
3. 12
4. 5

Cited source for all entries: ChEMBL document CHEMBL4673406
